- TARGET_UNDER_TEST: Mu-type opioid receptor (Homo sapiens)
ENDPOINT: Ki (nM)

INSERT INTO assay_data (structure_as_smiles, endpoint, numeric_result) VALUES
  ('C[C@H]1C2Cc3ccc(C(=O)NCCCc4ccc5ccccc5c4)cc3[C@@]1(C)CCN2CC1CC1', 'Ki', 1.9),
  ('C[C@H]1C2Cc3ccc(C(=O)NCCc4cccc(-c5ccccc5)c4)cc3[C@@]1(C)CCN2CC1CC1', 'Ki', 0.95),
  ('C[C@H]1C2Cc3ccc(C(=O)NCCCc4cccc5ccccc45)cc3[C@@]1(C)CCN2CC1CC1', 'Ki', 2.4),
  ('C[C@H]1C2Cc3ccc(C(=O)NCCc4ccc(Br)cc4)cc3[C@@]1(C)CCN2CC1CC1', 'Ki', 2.4),
  ('C[C@H]1C2Cc3ccc(C(=O)NCc4ccc5ccccc5c4)cc3[C@@]1(C)CCN2CC1CC1', 'Ki', 1.3),
  ('C[C@H]1C2Cc3ccc(C(=O)NCCc4cccc(Br)c4)cc3[C@@]1(C)CCN2CC1CC1', 'Ki', 0.35),
  ('C[C@H]1C2Cc3ccc(C(=O)NCCc4ccccc4-c4ccccc4)cc3[C@@]1(C)CCN2CC1CC1', 'Ki', 6.7),
  ('C[C@H]1C2Cc3ccc(C(=O)NCCc4cccc5ccccc45)cc3[C@@]1(C)CCN2CC1CC1', 'Ki', 4.2),
  ('C[C@H]1C2Cc3ccc(C(=O)NCCc4ccc5ccccc5c4)cc3[C@@]1(C)CCN2CC1CC1', 'Ki', 0.18);

---

- TARGET_UNDER_TEST: Delta-type opioid receptor (Homo sapiens, UniProt P41143)
- Sequence (P41143 whole entry): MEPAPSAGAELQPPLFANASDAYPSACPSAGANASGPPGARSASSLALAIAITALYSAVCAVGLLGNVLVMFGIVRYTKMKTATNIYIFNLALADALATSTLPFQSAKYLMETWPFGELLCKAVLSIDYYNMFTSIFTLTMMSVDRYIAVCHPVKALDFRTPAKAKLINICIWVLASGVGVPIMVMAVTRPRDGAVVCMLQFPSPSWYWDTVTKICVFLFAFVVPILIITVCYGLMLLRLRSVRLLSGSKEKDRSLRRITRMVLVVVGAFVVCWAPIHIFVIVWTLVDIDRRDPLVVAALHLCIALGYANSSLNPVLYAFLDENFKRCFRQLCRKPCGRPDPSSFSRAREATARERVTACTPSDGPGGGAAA
- ASSAY_TEXT: Antagonist activity at human delta opioid receptor expressed in CHO cell membrane assessed as inhibition of SNC80 induced [35S]GTPgammaS binding
- Assay type: functional, cell membranes
Active and inactive are the calls of the source. No cut-off for these calls is given here.
ENDPOINT: Activity

INSERT INTO measurements (structure_as_smiles, target_under_test, result) VALUES
  ('C[C@H]1C2Cc3ccc(C(=O)NCCc4cccc(-c5ccccc5)c4)cc3[C@@]1(C)CCN2CC1CC1', 'Delta-type opioid receptor (Homo sapiens, UniProt P41143)', 'inactive'),
  ('COc1ccc(-c2ccc(CCNC(=O)c3ccc4c(c3)[C@@]3(C)CCN(CC5CC5)C(C4)[C@@H]3C)cc2)cc1', 'Delta-type opioid receptor (Homo sapiens, UniProt P41143)', 'inactive'),
  ('C[C@H]1C2Cc3ccc(C(=O)NCCc4cccc(Br)c4)cc3[C@@]1(C)CCN2CC1CC1', 'Delta-type opioid receptor (Homo sapiens, UniProt P41143)', 'inactive'),
  ('C[C@H]1C2Cc3ccc(C(=O)NCCc4ccc(-c5ccc(Cl)cc5)cc4)cc3[C@@]1(C)CCN2CC1CC1', 'Delta-type opioid receptor (Homo sapiens, UniProt P41143)', 'inactive'),
  ('C[C@H]1C2Cc3ccc(C(=O)NCCc4ccc(Br)cc4)cc3[C@@]1(C)CCN2CC1CC1', 'Delta-type opioid receptor (Homo sapiens, UniProt P41143)', 'inactive');

---

Reported Ki, Kappa-type opioid receptor (Homo sapiens, UniProt P41145).
ENDPOINT: Ki (nM)

INSERT INTO assay_data (structure_as_smiles, target_under_test, numeric_result) VALUES
  ('C[C@H]1C2Cc3ccc(C(=O)NCCCc4cccc5ccccc45)cc3[C@@]1(C)CCN2CC1CC1', 'Kappa-type opioid receptor (Homo sapiens, UniProt P41145)', 1.9),
  ('C[C@H]1C2Cc3ccc(C(=O)NCCc4cccc(Br)c4)cc3[C@@]1(C)CCN2CC1CC1', 'Kappa-type opioid receptor (Homo sapiens, UniProt P41145)', 0.063),
  ('C[C@H]1C2Cc3ccc(C(=O)NCCc4ccc(-c5ccc(Cl)c(Cl)c5)cc4)cc3[C@@]1(C)CCN2CC1CC1', 'Kappa-type opioid receptor (Homo sapiens, UniProt P41145)', 1.1);

---

- TARGET_UNDER_TEST: Delta-type opioid receptor (Homo sapiens, UniProt P41143)
- ASSAY_TEXT: Agonist activity at human delta opioid receptor expressed in CHO cell membrane by [35S]GTP-gamma-S binding assay
Parameter EC50: see the listing below.
ENDPOINT: EC50 (nM)

INSERT INTO measurements (structure_as_smiles, endpoint, numeric_result) VALUES
  ('C[C@H]1C2Cc3ccc(C(=O)NCCc4cccc(-c5ccccc5)c4)cc3[C@@]1(C)CCN2CC1CC1', 'EC50', 18),
  ('COc1ccc(-c2ccc(CCNC(=O)c3ccc4c(c3)[C@@]3(C)CCN(CC5CC5)C(C4)[C@@H]3C)cc2)cc1', 'EC50', 0.68),
  ('C[C@H]1C2Cc3ccc(C(=O)NCCc4ccc(Br)cc4)cc3[C@@]1(C)CCN2CC1CC1', 'EC50', 20),
  ('C[C@H]1C2Cc3ccc(C(=O)NCCc4ccc(-c5ccc(Cl)cc5)cc4)cc3[C@@]1(C)CCN2CC1CC1', 'EC50', 2),
  ('C[C@H]1C2Cc3ccc(C(=O)NCCc4cccc(Br)c4)cc3[C@@]1(C)CCN2CC1CC1', 'EC50', 14);

---

- TARGET_UNDER_TEST: Delta-type opioid receptor (Homo sapiens)
- ASSAY_TEXT: Displacement of [3H]naltrindole from delta opioid receptor expressed in CHO cells
pKi: −log10 of the molar value.
ENDPOINT: pKi

INSERT INTO measurements (structure_as_smiles, numeric_result) VALUES
  ('C[C@H]1C2Cc3ccc(C(=O)NCCc4cccc5ccccc45)cc3[C@@]1(C)CCN2CC1CC1', 7.62),
  ('C[C@H]1C2Cc3ccc(C(=O)NCCc4ccccc4-c4ccccc4)cc3[C@@]1(C)CCN2CC1CC1', 7.68),
  ('C[C@H]1C2Cc3ccc(C(=O)NCCc4ccc(-c5ccc(Cl)c(Cl)c5)cc4)cc3[C@@]1(C)CCN2CC1CC1', 8.60),
  ('C[C@H]1C2Cc3ccc(C(=O)NCc4ccc5ccccc5c4)cc3[C@@]1(C)CCN2CC1CC1', 7.51),
  ('C[C@H]1C2Cc3ccc(C(=O)NCCc4ccc(Br)cc4)cc3[C@@]1(C)CCN2CC1CC1', 8.60);

---

- TARGET_UNDER_TEST: Mu-type opioid receptor (Homo sapiens, UniProt P35372)
- Sequence (P35372 whole entry): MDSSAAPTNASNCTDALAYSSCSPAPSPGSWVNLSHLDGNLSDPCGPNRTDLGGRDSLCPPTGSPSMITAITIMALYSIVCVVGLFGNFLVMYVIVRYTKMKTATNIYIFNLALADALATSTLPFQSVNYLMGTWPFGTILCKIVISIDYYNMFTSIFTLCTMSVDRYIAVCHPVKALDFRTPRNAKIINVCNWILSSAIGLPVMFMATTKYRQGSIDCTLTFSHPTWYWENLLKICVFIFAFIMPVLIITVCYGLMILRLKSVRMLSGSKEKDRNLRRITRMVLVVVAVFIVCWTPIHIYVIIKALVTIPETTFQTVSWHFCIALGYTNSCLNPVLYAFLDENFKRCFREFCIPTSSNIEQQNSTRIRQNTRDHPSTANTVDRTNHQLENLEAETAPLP
- ASSAY_TEXT: Agonist activity at human mu opioid receptor expressed in CHO cell membrane by [35S]GTPgammaS binding assay
pEC50: −log10 of the molar value.
ENDPOINT: pEC50

INSERT INTO results (structure_as_smiles, target_under_test, numeric_result) VALUES
  ('C[C@H]1C2Cc3ccc(C(=O)NCCc4ccc(Br)cc4)cc3[C@@]1(C)CCN2CC1CC1', 'Mu-type opioid receptor (Homo sapiens, UniProt P35372)', 7.80),
  ('C[C@H]1C2Cc3ccc(C(=O)NCCc4ccc(-c5ccc(Cl)cc5)cc4)cc3[C@@]1(C)CCN2CC1CC1', 'Mu-type opioid receptor (Homo sapiens, UniProt P35372)', 8.60),
  ('COc1ccc(-c2ccc(CCNC(=O)c3ccc4c(c3)[C@@]3(C)CCN(CC5CC5)C(C4)[C@@H]3C)cc2)cc1', 'Mu-type opioid receptor (Homo sapiens, UniProt P35372)', 7.96);

---

- TARGET_UNDER_TEST: Kappa-type opioid receptor (Homo sapiens, UniProt P41145)
- Sequence (P41145 whole entry): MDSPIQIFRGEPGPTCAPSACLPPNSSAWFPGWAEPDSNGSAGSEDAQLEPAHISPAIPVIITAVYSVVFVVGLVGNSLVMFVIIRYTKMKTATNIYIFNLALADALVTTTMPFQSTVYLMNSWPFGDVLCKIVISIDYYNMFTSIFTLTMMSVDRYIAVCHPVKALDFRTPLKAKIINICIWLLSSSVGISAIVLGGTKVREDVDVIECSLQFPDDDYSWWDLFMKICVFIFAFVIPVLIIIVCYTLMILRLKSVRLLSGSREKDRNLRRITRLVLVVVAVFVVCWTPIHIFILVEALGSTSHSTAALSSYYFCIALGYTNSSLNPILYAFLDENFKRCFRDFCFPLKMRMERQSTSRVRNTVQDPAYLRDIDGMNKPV
- ASSAY_TEXT: Agonist activity at human kappa opioid receptor expressed in CHO cell membrane by [35S]GTP-gamma-S binding assay
- Assay type: functional, cell membranes
ENDPOINT: Emax

INSERT INTO measurements (structure_as_smiles, target_under_test, endpoint, result) VALUES
  ('C[C@H]1C2Cc3ccc(C(=O)NCCc4ccc(Br)cc4)cc3[C@@]1(C)CCN2CC1CC1', 'Kappa-type opioid receptor (Homo sapiens, UniProt P41145)', 'Emax', '110%'),
  ('C[C@H]1C2Cc3ccc(C(=O)NCCCc4ccc5ccccc5c4)cc3[C@@]1(C)CCN2CC1CC1', 'Kappa-type opioid receptor (Homo sapiens, UniProt P41145)', 'Emax', '98%'),
  ('C[C@H]1C2Cc3ccc(C(=O)NCCc4ccccc4-c4ccccc4)cc3[C@@]1(C)CCN2CC1CC1', 'Kappa-type opioid receptor (Homo sapiens, UniProt P41145)', 'Emax', '97%'),
  ('C[C@H]1C2Cc3ccc(C(=O)NCCc4cccc(-c5ccccc5)c4)cc3[C@@]1(C)CCN2CC1CC1', 'Kappa-type opioid receptor (Homo sapiens, UniProt P41145)', 'Emax', '95%'),
  ('C[C@H]1C2Cc3ccc(C(=O)NCCc4ccc(-c5ccc(Cl)cc5)cc4)cc3[C@@]1(C)CCN2CC1CC1', 'Kappa-type opioid receptor (Homo sapiens, UniProt P41145)', 'Emax', '96%'),
  ('C[C@H]1C2Cc3ccc(C(=O)NCCc4cccc(Br)c4)cc3[C@@]1(C)CCN2CC1CC1', 'Kappa-type opioid receptor (Homo sapiens, UniProt P41145)', 'Emax', '110%'),
  ('COc1ccc(-c2ccc(CCNC(=O)c3ccc4c(c3)[C@@]3(C)CCN(CC5CC5)C(C4)[C@@H]3C)cc2)cc1', 'Kappa-type opioid receptor (Homo sapiens, UniProt P41145)', 'Emax', '98%');
